target: human Claudin18.2 (CLDN18.2) (human, UniProt P56856 1-261); experiment: cell-based or functional assay
Parameter Max tumor cell killing (% of control), ADCC: see the listing below.
Reported property: Max tumor cell killing (% of control), ADCC

{"Binder": "chAb05 (antibody, V domains shown) VH: DVKLVESGEDLVKPGGSLKLSCAASGFTFSNYAMSWVRQTPEKRLEWVAYVSSGGDYIYYADTVKGRFIISRDNARNTLYLQMNSLRSEDTAMYYCARVYFGNSLDYWGQGTTLTVSS VL: DIVMTQSPSSLTVTAGEKVTLSCKSSQSLLNGGNQKNYLTWYQQRPGQPPKLLIYWASTRESGVPDRFTGSGSGTDFTLIISSVQAEDLAVYYCQNDYYYPWTFGGGTKLEIK", "Result": "57.9 % of control"}
{"Binder": "chAb08 (antibody, V domains shown) VH: QVQLQQPGAELVKPGASVKLSCKASGYTFTSYLLHWVKQRPGQGLEWIGMIHPNGGSTNYNEKFKTKATLTVDKSSSTAYMQLSSLTSEDSAVYYCAPVYFGNSFAYWGQGTLVTVSA VL: DIVMTQSPSSLTVTAGEKVTMSCKSSQSLLNSGNQKNYLTWYQQKPGQPPKLLIYWASTRESGVPDRFTGSGSGTDFTLTISSVQAEDLAVYYCQNDYYYPFTFGSGTKLEKK", "Result": "69.3 % of control"}
{"Binder": "chAb31 (antibody, V domains shown) VH: QIQLAQSGPELKKPGETVKISCKASGYSFTNYGMNWVKQAPGKGLKWMGWINTYSGETKYADDFKGRFDFSLETSARTAYLQIKNLKIEDTATYFCARRDAMDYWGQGTSVTVSS VL: DIVMTQAAPSVPVTPGESVSISCRSSKSLLNSNGNTYLYWFLQRPGQSPQLLIYRMSNLASGVPDRFSGSGSGTAFTLRISRVEAEDVGVYYCMQHLEFPFTFGSGTKLEIK", "Result": "78.8 % of control"}
{"Binder": "chAb11 (antibody, V domains shown) VH: EVMLVESGGDLVKPGGSLKLSCAASGFTFSRYTMSWVRQTPEKRLEWVATVSVGSGNTYYLDSVKGRFTISRDNAKNTLFLQMNSLRSEDTALYYCTRLGQTQRNAVDYWGQGTSVTVSS VL: DIVMTQSPSFLSVSAGEKVTMSCKSSQSLFNGGNQKNYLAWYQQKPGQPPKLLIYGASTRDSGVPDRFTGSGSGTDFTLTISNVQAEDLAIYFCQNDHSFPLTFGAGTKLELK", "Result": "54.7 % of control"}
